Measured values drawn from the METLIN SMRT retention time set (Domingo-Almenara et al. 2019) for this set.

PROTOCOL: gradient 5% acetonitrile 3 min, to 50% in 2 min, to 85% in 15 min, held 3 min, 100 µL/min
CONDITION_CONTEXT: column: Zorbax Extend-C18 2.1 x 50 mm; eluents: water / acetonitrile, 0.1% formic acid
Label true when RP-LC retention time is strictly below 900 s; at or above that, label false.

Q: Input Cc1cccc(CN2CCn3c(nnc3[C@@H]3C[C@@H](O)CN3C)C2)c1 ; condition: RP-LC retention time strictly below 900 s. Does it hold?
A: true

Q: Input Cc1ccc(N(C)C(=O)n2cnc3ccccc32)cc1 ; condition: RP-LC retention time strictly below 900 s. Does it hold?
A: true

Q: Input Clc1ccc(C2Cn3nnc(-c4nc(-c5cccc(Cl)c5)no4)c3CO2)cc1 (centres undefined) ; condition: RP-LC retention time strictly below 900 s. Does it hold?
A: false

Q: Input CCC1CCCCN1C(=O)c1cnc2nc(C)ccc2c1Nc1cc(C)ccc1C (centres undefined) ; condition: RP-LC retention time strictly below 900 s. Does it hold?
A: true

Q: Input O=S(=O)(Cc1ccccc1)N1CCCCC1c1nc(-c2ccccc2)n[nH]1 (centres undefined) ; condition: RP-LC retention time strictly below 900 s. Does it hold?
A: false

Q: Input Cc1ccc(NC(=O)C2CCCN2S(=O)(=O)c2cc3c(cc2C)NC(=O)C(C)O3)cc1F (centres undefined) ; condition: RP-LC retention time strictly below 900 s. Does it hold?
A: true

Q: Input CC(C)Oc1ccc(-c2noc(Cn3c(=O)n(-c4cccc(F)c4)c(=O)c4sccc43)n2)cc1 ; condition: RP-LC retention time strictly below 900 s. Does it hold?
A: false

Q: Input COc1cc(OC)c(NC(=O)N2CCc3c(c(C(=O)N4CCOCC4)nn3C)C2)cc1Cl ; condition: RP-LC retention time strictly below 900 s. Does it hold?
A: true

----------
PROTOCOL: gradient 5% acetonitrile 3 min, to 50% in 2 min, to 85% in 15 min, held 3 min, 100 µL/min
CONDITION_CONTEXT: column: Zorbax Extend-C18 2.1 x 50 mm; eluents: water / acetonitrile, 0.1% formic acid
RP-LC retention time vs 800 s: at or above is t, below is f.

Q: # check: RP-LC retention time of Cc1cccc(CNC(=O)C2CCCN(c3ccc4cc(S(=O)(=O)N5CCCC5)ccc4n3)C2)c1 (stereo not given) is greater than or equal to 800 s
A: f

Q: # check: RP-LC retention time of O=C(NCCn1c(C(F)(F)F)nc2cccnc21)c1ccc(Br)o1 is greater than or equal to 800 s
A: f

Q: # check: RP-LC retention time of Cc1ccc(NC(=O)N2CCC[C@@H]2C(=O)NCc2csc(-c3ccccc3)n2)cc1C is greater than or equal to 800 s
A: t

Q: # check: RP-LC retention time of COc1ccccc1OC(C)C(=O)N1CCN(c2nc(CN3CCOCC3)cs2)CC1 (stereo not given) is greater than or equal to 800 s
A: f

Q: # check: RP-LC retention time of Cc1ccc(Sc2nccnc2N2CCCC(C(=O)NCc3ccc(F)cc3F)C2)cc1 (stereo not given) is greater than or equal to 800 s
A: t

Q: # check: RP-LC retention time of Cc1ccc(-c2noc(CSc3nccn3-c3ccccc3)n2)cc1 is greater than or equal to 800 s
A: t

Q: # check: RP-LC retention time of COc1ccc2cc(C(=O)N3CCCN(c4cc(=O)n(C)c(=O)n4C)CC3)[nH]c2c1 is greater than or equal to 800 s
A: f

Q: # check: RP-LC retention time of COc1nc2ccccc2nc1N1CCCC(C(=O)NC(C)c2ccccc2)C1 (stereo not given) is greater than or equal to 800 s
A: t

Q: # check: RP-LC retention time of c1cnn(-c2cc(N3CCCC3)ncn2)c1 is greater than or equal to 800 s
A: f

Q: # check: RP-LC retention time of Cc1cc2nn(CC(=O)Nc3ccc(Br)cc3F)c(=O)n2c(-c2ccc(F)cc2)n1 is greater than or equal to 800 s
A: t

Q: # check: RP-LC retention time of COc1cc(OC)cc(C(=O)Nc2ccc3c(c2)Sc2ncccc2C(=O)N3C(C)C)c1 is greater than or equal to 800 s
A: t

Q: # check: RP-LC retention time of CCOC(=O)CSc1nnc(CNC(=O)c2cc(OC)c(OC)c(OC)c2)n1C is greater than or equal to 800 s
A: f

Q: # check: RP-LC retention time of O=C(CSc1ccc(N2CCOCC2)nn1)Nc1ccc(Cl)cc1 is greater than or equal to 800 s
A: f

Q: # check: RP-LC retention time of CCC(=O)N1CCN(c2nc3c(s2)CC(C(=O)NCC(C)C)CC3)CC1 (stereo not given) is greater than or equal to 800 s
A: f

Q: # check: RP-LC retention time of O=C(Nc1nccs1)c1ccc(Cl)c(S(=O)(=O)N2CCOCC2)c1 is greater than or equal to 800 s
A: f

Q: # check: RP-LC retention time of Cc1ccc(Cc2nc(-c3ccc4c(c3)nnn4CCN3CCOCC3)no2)cc1 is greater than or equal to 800 s
A: f

Q: # check: RP-LC retention time of Cc1nn(C)cc1C(=O)Nc1c(C)n(C)n(-c2ccccc2)c1=O is greater than or equal to 800 s
A: f

Q: # check: RP-LC retention time of COc1ccc(-c2noc(-c3nc(-c4cccnc4)no3)n2)cc1 is greater than or equal to 800 s
A: t

Q: # check: RP-LC retention time of O=C(Cc1csc(SCC(=O)c2ccccc2)n1)Nc1cccc2nsnc12 is greater than or equal to 800 s
A: t

----------
PROTOCOL: gradient 5% acetonitrile 3 min, to 50% in 2 min, to 85% in 15 min, held 3 min, 100 µL/min
CONDITION_CONTEXT: column: Zorbax Extend-C18 2.1 x 50 mm; eluents: water / acetonitrile, 0.1% formic acid
OBSERVABLE: RP-LC retention time
Please state the number and follow it with the unit.

Q: Hello, please tell me recorded RP-LC retention time for this one: O=C(NC(c1ccccc1)c1nnc(N2CCCCC2)o1)C1CCCCC1 (stereo not drawn)
A: 878 s

Q: Hello, please tell me recorded RP-LC retention time for this one: Cc1ccc(-c2cc(C(=O)N3CCC(NC(=O)Cc4cccs4)CC3)[nH]n2)c(C)c1
A: 776 s

Q: Hello, please tell me recorded RP-LC retention time for this one: Cc1ccc(-c2csc(NC(=O)CC(C)C)n2)c(C)c1
A: 1090 s

Q: Hello, please tell me recorded RP-LC retention time for this one: COc1ccc(Cl)cc1NC(=O)N1CCC(n2c(C)nc3cccnc32)CC1
A: 682 s

Q: Hello, please tell me recorded RP-LC retention time for this one: CCc1cccc(NC(=O)Nc2cnn(-c3ncc(N4CCCC4)cn3)c2)c1
A: 749 s

Q: Hello, please tell me recorded RP-LC retention time for this one: CCNC(=O)c1nc2cc(C)c(C)cc2n(CC)c1=O
A: 745 s

Q: Hello, please tell me recorded RP-LC retention time for this one: Cc1ccc(NC(=O)Cn2c(C(C)C)nc3c(c2=O)CCN(Cc2ccccc2)C3)cc1C
A: 761 s

Q: Hello, please tell me recorded RP-LC retention time for this one: COc1cnc(SC)nc1Nc1ccc(C#N)cc1
A: 853 s

Q: Hello, please tell me recorded RP-LC retention time for this one: Cc1ccc(CNC(=O)CCNc2c(-c3ccc(F)cc3)nc3cnccn23)o1
A: 694 s

Q: Hello, please tell me recorded RP-LC retention time for this one: Cn1nccc1-c1cccc(-c2noc(C3CCN(S(=O)(=O)c4ccc(Cl)cc4)CC3)n2)c1
A: 1120 s

Q: Hello, please tell me recorded RP-LC retention time for this one: CCN1C=C(C(=O)OCc2ccccc2C)C(C)=NS1(=O)=O
A: 1030 s

Q: Hello, please tell me recorded RP-LC retention time for this one: COCCN1CCCc2ccc(NC(=O)c3ccc(Br)o3)cc21
A: 913 s

Q: Hello, please tell me recorded RP-LC retention time for this one: Cc1ccc2c(c1)N(Cc1ccc(F)cc1)N=C(C(=O)N1CCCC1)S2(=O)=O
A: 889 s

Q: Hello, please tell me recorded RP-LC retention time for this one: COc1cccc(CNC(=O)N2CCc3nc[nH]c3C2)c1
A: 625 s

Q: Hello, please tell me recorded RP-LC retention time for this one: CCCc1sc(NCc2cccc(OC)c2O)nc1-c1cc(C)ccc1C
A: 911 s

Q: Hello, please tell me recorded RP-LC retention time for this one: COCc1cc(=O)n(CC(=O)Nc2ccc(Cl)cc2)c(N2CCOCC2)n1
A: 865 s

Q: Hello, please tell me recorded RP-LC retention time for this one: O=c1n(Cc2cccc(Br)c2)nc2c(S(=O)(=O)N3CCCC3)cccn12
A: 887 s

Q: Hello, please tell me recorded RP-LC retention time for this one: CCc1ccc(C2=C(C)C(N3CCCN(C(=O)NCCC(C)C)CC3)=NS2(=O)=O)cc1
A: 926 s

Q: Hello, please tell me recorded RP-LC retention time for this one: COCCN1C(=O)CCc2cc(NC(=O)c3ccc(Br)o3)ccc21
A: 721 s

Q: Hello, please tell me recorded RP-LC retention time for this one: O=C(NCc1ccccc1)N1CCN(c2ccc(-c3cccs3)nn2)CC1
A: 639 s

Q: Hello, please tell me recorded RP-LC retention time for this one: CCC(=O)OCCN1C(=O)c2cccc3c(N4CCCCC4)ccc(c23)C1=O
A: 1170 s

Q: Hello, please tell me recorded RP-LC retention time for this one: Cc1ccc(NC(=O)N2CCC(c3nc(C(=O)N4CCCC4)c(C)o3)CC2)cc1
A: 759 s

Q: Hello, please tell me recorded RP-LC retention time for this one: Cc1cccc(NC(=O)Cn2nc(N3CCCC3)c3ccccc3c2=O)c1
A: 960 s

Q: Hello, please tell me recorded RP-LC retention time for this one: COc1ccc(NC(=O)Cn2c(=O)cc(-c3nc(C(C)C)no3)c3ccccc32)cc1
A: 938 s

Q: Hello, please tell me recorded RP-LC retention time for this one: CCOC(=O)c1c(C)oc2nc(C)nc(NCCCN3CCN(c4ccccc4OC)CC3)c12
A: 596 s

Q: Hello, please tell me recorded RP-LC retention time for this one: Clc1cccc(CN2CCc3nc(N4CCN(c5ccccc5)CC4)ncc3C2)c1
A: 775 s

Q: Hello, please tell me recorded RP-LC retention time for this one: Cc1cc2c(F)c(Oc3ncnn4cc(OC[C@@H](C)OC(=O)[C@H](C)N)c(C)c34)ccc2[nH]1
A: 746 s

Q: Hello, please tell me recorded RP-LC retention time for this one: O=C(NC1CCCCC1)C1(CCO)CC12CCN(c1ncccn1)CC2 (stereo not drawn)
A: 651 s

Q: Hello, please tell me recorded RP-LC retention time for this one: O=C1[C@@H]2[C@H]3CC[C@H](C3)[C@@H]2C(=O)N1C[C@@H]1CCCC[C@H]1CN1CCN(c2nsc3ccccc23)CC1
A: 884 s

Q: Hello, please tell me recorded RP-LC retention time for this one: CC1(C)CC(=O)c2cn(-c3ccccc3)c(=O)c(C(=O)Nc3cc(F)ccc3F)c2C1
A: 1030 s

Q: Hello, please tell me recorded RP-LC retention time for this one: Cc1cc2cc3n(c2nn1)N=C(Cl)CC3
A: 610 s

Q: Hello, please tell me recorded RP-LC retention time for this one: CCc1ccc(C2CC(=O)Nc3c(S(=O)(=O)c4ccccc4)csc32)cc1 (stereo not drawn)
A: 1060 s

Q: Hello, please tell me recorded RP-LC retention time for this one: COc1ccc(S(=O)(=O)CCC(=O)NC(C(=O)N2CCCc3ccccc32)c2ccccc2)cc1 (stereo not drawn)
A: 928 s

Q: Hello, please tell me recorded RP-LC retention time for this one: COc1ccc(CN2C(=O)[C@H](OC)[C@@H]2C2=CCN(S(=O)(=O)c3cccs3)CC2)cc1
A: 872 s

Q: Hello, please tell me recorded RP-LC retention time for this one: Cc1ccc(S(=O)(=O)CCc2nc3ccccc3n2CC(=O)O)cc1
A: 607 s

Q: Hello, please tell me recorded RP-LC retention time for this one: Cc1c(NC(=O)c2cccc3c2-c2ccccc2C3=O)c(=O)n(-c2ccccc2)n1C
A: 658 s

Q: Hello, please tell me recorded RP-LC retention time for this one: COc1ccc(NC(=O)N2CCC(c3nc(C(=O)N4CCOCC4)c(C)o3)CC2)cc1
A: 660 s

Q: Hello, please tell me recorded RP-LC retention time for this one: CCCCN1CCN(S(=O)(=O)c2cc(-c3nnc(CC)o3)co2)CC1
A: 608 s
